test: Serum plasma levels of SAHA after IV and oral dosing (HPLC assay, LCMS using a deuterated standard); format: in vivo, humans; details: human, Patient #2, oral (fasting), single capsule 200 mg
Measure name: half-life (h)
Numbers only, in h.

Look at this compound and give its reported half-life. O=C(CCCCCCC(=O)Nc1ccccc1)NO [SAHA, suberoylanilide hydroxamic acid] 1.37

###

assay: Serum plasma levels of SAHA after IV and oral dosing (HPLC assay, LCMS using a deuterated standard); assay type: in vivo, humans; conditions: human, po, 200 mg, Patient #1, oral (fasting), single capsule 200 mg
Measure name: AUC
# do not omit the unit; it follows the number

Look at this molecule and give its reported AUC. O=C(CCCCCCC(=O)Nc1ccccc1)NO [SAHA, suberoylanilide hydroxamic acid] 417 ng·h/mL

###

assay: Serum plasma levels of SAHA after IV and oral dosing (HPLC assay, LCMS using a deuterated standard); assay type: in vivo, humans; settings: human, iv, 200 mg, Patient #2, IV, 200 mg infused over two hours
Measure name: Cmax (ng/mL)
Give bare numbers, in ng/mL.

Look at this compound and give its reported Cmax. O=C(CCCCCCC(=O)Nc1ccccc1)NO [SAHA, suberoylanilide hydroxamic acid] 1000

###

assay: Serum plasma levels of SAHA after IV and oral dosing (HPLC assay, LCMS using a deuterated standard); type: in vivo, humans; conditions: human, po, 200 mg, Patient #1, oral (nonfasting), single capsule 200 mg
Measure name: AUC (ng·h/mL)
One number for each entry, in ng·h/mL.

Look at this compound and give its reported AUC. O=C(CCCCCCC(=O)Nc1ccccc1)NO [SAHA, suberoylanilide hydroxamic acid] 983

###

assay: Serum plasma levels of SAHA after IV and oral dosing (HPLC assay, LCMS using a deuterated standard); format: in vivo, humans; details: human, iv, 200 mg, Patient #1, IV, 200 mg infused over two hours
Measure name: AUC

Look at this compound and give its reported AUC. O=C(CCCCCCC(=O)Nc1ccccc1)NO [SAHA, suberoylanilide hydroxamic acid] 2550 ng·h/mL

###

test: Serum plasma levels of SAHA after IV and oral dosing (HPLC assay, LCMS using a deuterated standard); type: in vivo, humans; conditions: human, po, 200 mg, Patient #1, oral (fasting), single capsule 200 mg
Measure name: Cmax (ng/mL)
Answers are plain numbers, in ng/mL.

Look at this compound and give its reported Cmax. O=C(CCCCCCC(=O)Nc1ccccc1)NO [SAHA, suberoylanilide hydroxamic acid] 225

###

test: Serum plasma levels of SAHA after IV and oral dosing (HPLC assay, LCMS using a deuterated standard); type: in vivo, humans; details: human, po, 200 mg, Patient #2, oral (nonfasting), single capsule 200 mg
Measure name: half-life (h)
Give bare numbers, in h.

Look at this compound and give its reported half-life. O=C(CCCCCCC(=O)Nc1ccccc1)NO [SAHA, suberoylanilide hydroxamic acid] 1.55

###

test: Serum plasma levels of SAHA after IV and oral dosing (HPLC assay, LCMS using a deuterated standard); assay type: in vivo, humans; conditions: human, po, 200 mg, Patient #1, oral (nonfasting), single capsule 200 mg
Measure name: Cmax

Look at this molecule and give its reported Cmax. O=C(CCCCCCC(=O)Nc1ccccc1)NO [SAHA, suberoylanilide hydroxamic acid] 328 ng/mL

###

assay: Serum plasma levels of SAHA after IV and oral dosing (HPLC assay, LCMS using a deuterated standard); format: in vivo, humans; details: human, po, 200 mg, Patient #2, oral (nonfasting), single capsule 200 mg
Measure name: AUC (ng·h/mL)
Numbers only, in ng·h/mL.

Look at this compound and give its reported AUC. O=C(CCCCCCC(=O)Nc1ccccc1)NO [SAHA, suberoylanilide hydroxamic acid] 998

###

test: Serum plasma levels of SAHA after IV and oral dosing (HPLC assay, LCMS using a deuterated standard); type: in vivo, humans; settings: human, iv, 200 mg, Patient #2, IV, 200 mg infused over two hours
Measure name: half-life (min)
Answers are plain numbers, in min.

Look at this molecule and give its reported half-life. O=C(CCCCCCC(=O)Nc1ccccc1)NO [SAHA, suberoylanilide hydroxamic acid] 21

###

experiment: Serum plasma levels of SAHA after IV and oral dosing (HPLC assay, LCMS using a deuterated standard); format: in vivo, humans; conditions: human, po, 200 mg, Patient #2, oral (nonfasting), single capsule 200 mg
Measure name: Cmax (ng/mL)
Give bare numbers, in ng/mL.

Look at this compound and give its reported Cmax. O=C(CCCCCCC(=O)Nc1ccccc1)NO [SAHA, suberoylanilide hydroxamic acid] 302
